pIC50: −log10 of the molar value.
Please find below pIC50 data on Serine/threonine-protein kinase PLK1 (Homo sapiens, UniProt P53350) compiled from the literature.
Sequence (P53350 whole entry): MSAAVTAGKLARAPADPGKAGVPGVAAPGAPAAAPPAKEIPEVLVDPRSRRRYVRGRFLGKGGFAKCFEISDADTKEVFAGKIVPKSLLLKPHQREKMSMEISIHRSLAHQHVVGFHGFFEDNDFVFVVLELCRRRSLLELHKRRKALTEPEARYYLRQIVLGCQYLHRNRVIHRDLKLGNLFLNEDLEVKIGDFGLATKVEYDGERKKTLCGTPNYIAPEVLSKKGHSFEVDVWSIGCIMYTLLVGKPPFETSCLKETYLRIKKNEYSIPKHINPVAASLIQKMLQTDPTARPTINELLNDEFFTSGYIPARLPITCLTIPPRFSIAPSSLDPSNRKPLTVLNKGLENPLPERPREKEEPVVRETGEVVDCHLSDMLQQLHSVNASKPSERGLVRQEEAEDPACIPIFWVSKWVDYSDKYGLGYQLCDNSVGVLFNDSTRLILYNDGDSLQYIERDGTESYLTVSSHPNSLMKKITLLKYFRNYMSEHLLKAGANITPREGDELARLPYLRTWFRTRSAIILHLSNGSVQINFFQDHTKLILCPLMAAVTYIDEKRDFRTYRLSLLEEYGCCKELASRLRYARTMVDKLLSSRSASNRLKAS

Reference set, count: 5
compound	pIC50
Cc1ccc(C(=O)NC2CC2)cc1-c1ccc2c(C3CCNCC3)noc2c1	< 4.60
C=CCn1c(=O)c2cnc(Nc3ccc(N4CCN(CC(=O)NCCOCCOCCNc5cccc6c5C(=O)N(C5CCC(=O)NC5=O)C6=O)CC4)cc3)nc2n1-c1cccc(C(C)(C)O)n1 (configuration not stated)	< 5.00
COc1cccc(F)c1-c1ccnc(Nc2ccc(S(=O)(=O)Nc3nccs3)cc2)n1	< 4.90
O=C1Nc2ccccc2/C1=C\c1ccc2[nH]nnc2c1	4.54
CCCCN(C)C(=O)c1cc2c(-c3ccccc3)n[nH]c2s1	< 4.70

Q: Enter recorded pIC50 with Serine/threonine-protein kinase PLK1 (Homo sapiens, UniProt P53350) for CCCCCCCCCc1ccc(C(=O)Nc2ccc(C)cc2C(=O)OC)cc1 here.
Ans: < 3.22

Q: Enter recorded pIC50 with Serine/threonine-protein kinase PLK1 (Homo sapiens, UniProt P53350) for Cc1nc(-c2ccccc2)n2nc(Nc3cccc(C(F)(F)F)c3)ncc12 here.
Ans: < 5.00

====

pIC50: −log10 of the molar value.
Please find below pIC50 data on Serine/threonine-protein kinase PLK1 (Homo sapiens, UniProt P53350) compiled from the literature.

compound	recordedMeasurement
COc1cc(F)ccc1-c1ccnc(Nc2ccc(S(=O)(=O)Nc3noc(C)c3C)cc2)n1	< 4.90
CCc1cccc(CC)c1NC(=O)c1nn(C)c2c1CCc1cnc(Nc3ccc(C(=O)N4CCCN(C)CC4)cc3OC)nc1-2	< 5.00
CNc1nc2oc(-c3ccccc3)nc2c2c1ncn2C	> 4.30
O=C1Cc2cnc(Nc3ccc(Cl)cc3)nc2-c2ccccc2N1	< 4.00
NC(=O)c1ccc2c(c1)NC(=O)/C2=C(\Nc1ccc(CN2CCCCC2)cc1)c1ccccc1	< 5.00
COc1ccc(CNC(=O)c2cc3c(-c4ccccc4)n[nH]c3s2)cc1	< 4.70
Cc1n[nH]c2sc(C(N)=O)c(NC(=O)COc3ccccc3)c12	< 4.00
COc1ccc2c(c1)/C(=C\c1ccc3c(/C=C/c4cccnc4)n[nH]c3c1)C(=O)N2	< 5.00
O=C1Nc2ccccc2[C@]12C[C@H]2c1ccc2c(/C=C/c3ccncc3)n[nH]c2c1 (relative stereo)	< 4.00
CC(=O)Nc1ccc2c(c1)/C(=C\c1ccc3cn[nH]c3c1)C(=O)N2	< 5.00

Continue with the next compound.
Q: Specify measured pIC50 for COc1ccc2c(c1)NC(=O)Cc1cnc(Nc3ccc(O)cc3)nc1-2 .
Ans: 6.12

====

Please find below IC50 data on Serine/threonine-protein kinase PLK1 (Homo sapiens, UniProt P53350) compiled from the literature.
observable: IC50 (µM)

Reference set, count: 5
>>> df
                                   compound                                  testedon  recordedmeasurement
0       CNc1nc2c(nc(-c3ccccc3)n2C)c2c1ncn2C  Serine/threonine-protein kinase PLK1 (Homo sapiens, UniProt P53350)                   12
1  Cc1nc(-c2ccccc2)n2nc(Nc3ccc(OCCN(C)C)cc3)ncc12  Serine/threonine-protein kinase PLK1 (Homo sapiens, UniProt P53350)                 0.38
2  COc1ccc2c(c1)ncn2-c1cc(OCc2ccccc2C(F)(F)F)c(C(N)=O)s1  Serine/threonine-protein kinase PLK1 (Homo sapiens, UniProt P53350)                0.008
3  CN1CCN(c2ccc(OC(F)(F)F)c(Nc3ncc4c(n3)-c3[nH]nc(C(N)=O)c3CC4)c2)CC1  Serine/threonine-protein kinase PLK1 (Homo sapiens, UniProt P53350)                0.004
4  COc1cc2ncn(-c3cc(OCc4ccnc(Br)c4)c(C(N)=O)s3)c2cc1OC  Serine/threonine-protein kinase PLK1 (Homo sapiens, UniProt P53350)                0.014

a: CNC(=O)Cn1cc(-c2ccc(C)cc2)ncc1=O
b: Cn1cc(C(N)=O)cc1-c1ccnc(Nc2cc(N3CCNCC3)ccc2OC(F)(F)F)n1
Q: Which value of IC50 is smaller, the one for a or the one for b ? Please reply using the label of the selected record.
Ans: b

I: C=CCn1c(=O)c2cnc(Nc3ccc(N4CCN(C)CC4)cc3)nc2n1-c1ccc2c(n1)C(O)(CC)CC2 (racemic)
II: CC(Nc1ncc(C#N)c(OCC2CCCCO2)n1)c1ccccc1 (configuration not stated)
Q: Which value of IC50 is smaller, the one for I or the one for II ? Please reply using the label of the selected record.
Ans: I
